# Test system: Staph.aureus 0119
# method: Minimum Inhibitory Concentration (MIC), broth dilution method
# Type: cell-based
# measurement-parameters: Staphylococcus aureus, 0119, Staph.aureus 0119, macrolide resistant clinical isolate (A group), inoculum size 10^6 /ml
quantity-name: MIC (µg/mL)

{"molecule": "CCCC(=O)OC1C(C)OC(OC2C(C)OC(OC3C(CC=O)CC(C)C(O)C=CC=CCC(C)OC(=O)CC(O)C3OC)C(O)C2N(C)C)CC1(C)OC(=O)CC (centres unmarked)", "study-system": "Staph.aureus 0119", "comparison-symbol": ">", "observed-measurement": 100}
{"molecule": "CCCC(=O)OC1C(C)OC(OC2C(C)OC(OC3C(CC=O)CC(C)C(OC(C)=O)C=CC=CCC(C)OC(=O)CC(O)C3OC)C(O)C2N(C)C)CC1(C)OC(C)=O (centres unmarked)", "study-system": "Staph.aureus 0119", "comparison-symbol": "=", "observed-measurement": 100}

* * *

# Test system: Staph.aureus MS353

{"compound": "CCCC(=O)OC1C(C)OC(OC2C(C)OC(OC3C(CC=O)CC(C)C(O)C=CC=CCC(C)OC(=O)CC(O)C3OC)C(O)C2N(C)C)CC1(C)OC(=O)CCC (centres unmarked)", "MIC (µg/mL)": 1.6}
{"compound": "COC1C(OC(C)=O)CC(=O)OC(C)CC=CC=CC(O)C(C)CC(CC=O)C1OC1OC(C)C(OC2CC(C)(O)C(OC(=O)CC(C)C)C(C)O2)C(N(C)C)C1O (centres unmarked) [LM-A3, Leucomycin A3, reference compound]", "MIC (µg/mL)": 3.1}
{"compound": "CCCC(=O)OC1C(C)OC(OC2C(C)OC(OC3C(CC=O)CC(C)C(O)C=CC=CCC(C)OC(=O)CC(OC(C)=O)C3OC)C(O)C2N(C)C)CC1(C)OC(C)=O (centres unmarked)", "MIC (µg/mL)": 1.6}
{"compound": "CCCC(=O)OC1C(C)OC(OC2C(C)OC(OC3C(CC=O)CC(C)C(O)C=CC=CCC(C)OC(=O)CC(O)C3OC)C(O)C2N(C)C)CC1(C)OC(=O)CC (centres unmarked)", "MIC (µg/mL)": 1.6}
{"compound": "CCCC(=O)OC1C(C)OC(OC2C(C)OC(OC3C(CC=O)CC(C)C(O)C=CC=CCC(C)OC(=O)CC(O)C3OC)C(O)C2N(C)C)CC1(C)OC(C)=O (centres unmarked)", "MIC (µg/mL)": 1.6}

* * *

# System: Staph.aureus MS353
# method: Minimum Inhibitory Concentration (MIC), broth dilution method
# Type: cell-based
# measurement-parameters: Staphylococcus aureus, inoculum size 10^6 /ml
quantity-name: MIC (µg/mL)

{"compound": "CCCC(=O)OC1(C)CC(OC2C(C)OC(OC3C(CC=O)CC(C)C(O)C=CC=CCC(C)OC(=O)CC(O)C3OC)C(O)C2N(C)C)OC(C)C1OC(C)=O (stereo not drawn) [4\"-acetyl-3\"-butylyl LM-A5, 4\"-acetyl-3\"-butylyl leucomycin V]", "quantity-name": "MIC", "observed-measurement": 1.6}
{"compound": "CCCC(=O)OC1C(C)OC(OC2C(C)OC(OC3C(CC=O)CC(C)C(O)C=CC=CCC(C)OC(=O)CC(O)C3OC)C(O)C2N(C)C)CC1(C)O (stereo not drawn) [LM-A5, Leucomycin A5, reference compound]", "quantity-name": "MIC", "observed-measurement": 1.6}
{"compound": "CCCC(=O)OC1C(C)OC(OC2C(C)OC(OC3C(CC=O)CC(C)C(OC(C)=O)C=CC=CCC(C)OC(=O)CC(O)C3OC)C(O)C2N(C)C)CC1(C)OC(C)=O (stereo not drawn) [9,3\"-diacetyl LM-A5, 9,3\"-diacetyl leucomycin A5]", "quantity-name": "MIC", "observed-measurement": 1.6}
